test system: HepG2; experiment: Cytotoxicity against human HepG2 cells assessed as cell viability at 25 uM after 24 hrs by MTS assay; assay type: functional; conditions: HepG2, 24 h, read-out: Activity
In this section, each of the compounds is paired with its reported viability at 25 µM.

Record smiles: Cc1ccc(S(=O)(=O)n2c(-c3ccccc3)c(C#CCO)c3ccccc32)cc1
Assayed system: HepG2
viability at 25 µM: 58%
//
Record smiles: C[C@@H]1O[C@@H](OCC#Cc2c(-c3ccccc3)sc3ccccc23)CC[C@@H]1N
Assayed system: HepG2
viability at 25 µM: < 1%
//
Record smiles: Cc1ccc(S(=O)(=O)n2c(-c3ccccc3)c(C#CCO[C@H]3C[C@H](N)[C@H](O)[C@H](C)O3)c3ccccc32)cc1
Assayed system: HepG2
viability at 25 µM: < 1%
//
Record smiles: OCC#Cc1c(-c2ccccc2)[nH]c2ccccc12
Assayed system: HepG2
viability at 25 µM: 87%
//
Record smiles: OCC#Cc1c(-c2ccccc2)oc2ccccc12
Assayed system: HepG2
viability at 25 µM: 88%
//
Record smiles: Cc1ccc(S(=O)(=O)n2c(-c3ccccc3)c(C#CCO[C@H]3CC[C@H](N)[C@H](C)O3)c3ccccc32)cc1
Assayed system: HepG2
viability at 25 µM: < 1%
//
Record smiles: C[C@@H]1O[C@@H](OCC#Cc2c(-c3ccccc3)oc3ccccc23)C[C@H](N)[C@@H]1O
Assayed system: HepG2
viability at 25 µM: < 1%
//
Record smiles: C[C@@H]1O[C@@H](OCC#Cc2c(-c3ccccc3)[nH]c3ccccc23)CC[C@@H]1N
Assayed system: HepG2
viability at 25 µM: < 1%
//
Record smiles: C[C@@H]1O[C@@H](OCC#Cc2c(-c3ccccc3)[nH]c3ccccc23)C[C@H](N)[C@H]1O
Assayed system: HepG2
viability at 25 µM: < 1%

###

test system: HepG2; assay: Cytotoxicity against human HepG2 cells assessed as cell viability at 25 uM after 24 hrs by MTS assay; type: functional; conditions: HepG2, 24 h, read-out: Activity

Record smiles: C[C@@H]1O[C@@H](OCC#Cc2c(-c3ccccc3)oc3ccccc23)CC[C@@H]1N
Units text: %
Bound sign: <
viability at 25 µM: 1

Record smiles: Cc1ccc(S(=O)(=O)n2c(-c3ccccc3)c(C#CCO[C@H]3C[C@H](N)[C@@H](O)[C@H](C)O3)c3ccccc32)cc1
Units text: %
Bound sign: <
viability at 25 µM: 1

Record smiles: C[C@@H]1O[C@@H](OCC#Cc2c(-c3ccccc3)sc3ccccc23)C[C@H](N)[C@H]1O
Units text: %
Bound sign: =
viability at 25 µM: 2

Record smiles: C[C@@H]1O[C@@H](OCC#Cc2c(-c3ccccc3)oc3ccccc23)C[C@H](N)[C@H]1O
Units text: %
Bound sign: <
viability at 25 µM: 1

Record smiles: OCC#Cc1c(-c2ccccc2)sc2ccccc12
Units text: %
Bound sign: =
viability at 25 µM: 97

Record smiles: C[C@@H]1O[C@@H](OCC#Cc2c(-c3ccccc3)[nH]c3ccccc23)C[C@H](N)[C@@H]1O
Units text: %
Bound sign: <
viability at 25 µM: 1

Record smiles: COc1cccc2c1C(=O)c1c(O)c3c(c(O)c1C2=O)C[C@@](O)(C(=O)CO)C[C@@H]3O[C@H]1C[C@H](N)[C@H](O)[C@H](C)O1
Units text: %
Bound sign: =
viability at 25 µM: 8

Record smiles: Cc1ccc(S(=O)(=O)n2c(-c3ccccc3)cc3ccccc32)cc1
Units text: %
Bound sign: =
viability at 25 µM: 54

Record smiles: C[C@@H]1O[C@@H](OCC#Cc2c(-c3ccccc3)sc3ccccc23)C[C@H](N)[C@@H]1O
Units text: %
Bound sign: <
viability at 25 µM: 1

###

target: DNA topoisomerase 2-alpha (Homo sapiens); assay: Inhibition of human recombinant DNA topoisomerase 2alpha-mediated DNA cleavage assessed as decrease in relaxation of supercoiled plasmid substrate DNA at 100 uM after 30 mins by agarose gel electrophoresis

Record smiles: C[C@@H]1O[C@@H](OCC#Cc2c(-c3ccccc3)oc3ccccc23)CC[C@@H]1N
inhibition, %: 0
--
Record smiles: C[C@@H]1O[C@@H](OCC#Cc2c(-c3ccccc3)[nH]c3ccccc23)C[C@H](N)[C@H]1O
inhibition, %: 55.5
--
Record smiles: Cc1ccc(S(=O)(=O)n2c(-c3ccccc3)c(C#CCO[C@H]3C[C@H](N)[C@@H](O)[C@H](C)O3)c3ccccc32)cc1
inhibition, %: 103
--
Record smiles: C[C@@H]1O[C@@H](OCC#Cc2c(-c3ccccc3)oc3ccccc23)C[C@H](N)[C@@H]1O
inhibition, %: 6.5

###

Molecular target: DNA topoisomerase 1 (Homo sapiens)
Sequence (whole entry): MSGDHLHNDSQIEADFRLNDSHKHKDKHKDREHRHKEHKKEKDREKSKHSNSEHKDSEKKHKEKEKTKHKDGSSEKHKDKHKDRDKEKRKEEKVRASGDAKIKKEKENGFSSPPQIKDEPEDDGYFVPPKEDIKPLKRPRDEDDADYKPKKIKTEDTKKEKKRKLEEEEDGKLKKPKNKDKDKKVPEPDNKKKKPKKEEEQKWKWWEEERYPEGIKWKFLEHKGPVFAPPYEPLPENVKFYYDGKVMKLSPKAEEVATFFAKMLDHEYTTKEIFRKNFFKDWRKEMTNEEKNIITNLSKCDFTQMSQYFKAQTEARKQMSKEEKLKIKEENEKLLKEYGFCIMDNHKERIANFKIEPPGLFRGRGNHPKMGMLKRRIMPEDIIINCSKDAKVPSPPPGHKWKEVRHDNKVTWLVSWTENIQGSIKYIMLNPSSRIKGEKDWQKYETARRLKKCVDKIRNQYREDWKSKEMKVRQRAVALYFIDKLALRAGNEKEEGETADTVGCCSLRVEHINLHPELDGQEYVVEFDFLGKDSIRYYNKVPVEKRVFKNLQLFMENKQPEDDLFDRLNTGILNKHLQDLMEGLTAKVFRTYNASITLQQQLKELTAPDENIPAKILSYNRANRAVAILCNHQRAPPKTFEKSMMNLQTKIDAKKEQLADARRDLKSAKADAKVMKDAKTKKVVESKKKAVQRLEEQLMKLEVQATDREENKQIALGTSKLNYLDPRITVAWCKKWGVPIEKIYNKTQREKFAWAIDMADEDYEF
Test: Inhibition of human recombinant DNA topoisomerase 1-mediated DNA cleavage assessed as decrease in relaxation of supercoiled plasmid substrate DNA at 100 uM after 30 mins by agarose gel electrophoresis
Hi all, reminder that labels come from inhibition, split as band A: < 9%; band B: ≥ 9% and < 40%; band C: ≥ 40%

Record smiles: Cc1ccc(S(=O)(=O)n2c(-c3ccccc3)c(C#CCO[C@H]3C[C@H](N)[C@H](O)[C@H](C)O3)c3ccccc32)cc1
Assayed system: DNA topoisomerase 1 (Homo sapiens)
Class label: band C
//
Record smiles: C[C@@H]1O[C@@H](OCC#Cc2c(-c3ccccc3)[nH]c3ccccc23)CC[C@@H]1N
Assayed system: DNA topoisomerase 1 (Homo sapiens)
Class label: band A
//
Record smiles: Cc1ccc(S(=O)(=O)n2c(-c3ccccc3)c(C#CCO[C@H]3C[C@H](N)[C@@H](O)[C@H](C)O3)c3ccccc32)cc1
Assayed system: DNA topoisomerase 1 (Homo sapiens)
Class label: band C
//
Record smiles: C[C@@H]1O[C@@H](OCC#Cc2c(-c3ccccc3)oc3ccccc23)C[C@H](N)[C@@H]1O
Assayed system: DNA topoisomerase 1 (Homo sapiens)
Class label: band C
//
Record smiles: C[C@@H]1O[C@@H](OCC#Cc2c(-c3ccccc3)sc3ccccc23)C[C@H](N)[C@@H]1O
Assayed system: DNA topoisomerase 1 (Homo sapiens)
Class label: band B
//
Record smiles: C[C@@H]1O[C@@H](OCC#Cc2c(-c3ccccc3)[nH]c3ccccc23)C[C@H](N)[C@H]1O
Assayed system: DNA topoisomerase 1 (Homo sapiens)
Class label: band A
//
Record smiles: C[C@@H]1O[C@@H](OCC#Cc2c(-c3ccccc3)oc3ccccc23)CC[C@@H]1N
Assayed system: DNA topoisomerase 1 (Homo sapiens)
Class label: band B
//
Record smiles: C[C@@H]1O[C@@H](OCC#Cc2c(-c3ccccc3)sc3ccccc23)C[C@H](N)[C@H]1O
Assayed system: DNA topoisomerase 1 (Homo sapiens)
Class label: band B
//
Record smiles: C[C@@H]1O[C@@H](OCC#Cc2c(-c3ccccc3)sc3ccccc23)CC[C@@H]1N
Assayed system: DNA topoisomerase 1 (Homo sapiens)
Class label: band A
//
Record smiles: C[C@@H]1O[C@@H](OCC#Cc2c(-c3ccccc3)oc3ccccc23)C[C@H](N)[C@H]1O
Assayed system: DNA topoisomerase 1 (Homo sapiens)
Class label: band B
//
Record smiles: Cc1ccc(S(=O)(=O)n2c(-c3ccccc3)c(C#CCO[C@H]3CC[C@H](N)[C@H](C)O3)c3ccccc32)cc1
Assayed system: DNA topoisomerase 1 (Homo sapiens)
Class label: band C

###

tested on: Nucleic Acid; test: Binding affinity to DNA by ethidium bromide staining-based FID assay; parameters: concentration or dose not given beside the values
In this section, each of the compounds is paired with its reported Activity.

Record smiles: C[C@@H]1O[C@@H](OCC#Cc2c(-c3ccccc3)sc3ccccc23)C[C@H](N)[C@@H]1O
Activity (%): 67.5

Record smiles: Cc1ccc(S(=O)(=O)n2c(-c3ccccc3)c(C#CCO[C@H]3C[C@H](N)[C@@H](O)[C@H](C)O3)c3ccccc32)cc1
Activity (%): 49.7

Record smiles: C[C@@H]1O[C@@H](OCC#Cc2c(-c3ccccc3)[nH]c3ccccc23)C[C@H](N)[C@@H]1O
Activity (%): 76.7

Record smiles: C[C@@H]1O[C@@H](OCC#Cc2c(-c3ccccc3)sc3ccccc23)C[C@H](N)[C@H]1O
Activity (%): 73.6

Record smiles: C[C@@H]1O[C@@H](OCC#Cc2c(-c3ccccc3)oc3ccccc23)C[C@H](N)[C@@H]1O
Activity (%): 62

Record smiles: C[C@@H]1O[C@@H](OCC#Cc2c(-c3ccccc3)[nH]c3ccccc23)CC[C@@H]1N
Activity (%): 78.4

Record smiles: Cc1ccc(S(=O)(=O)n2c(-c3ccccc3)c(C#CCO[C@H]3C[C@H](N)[C@H](O)[C@H](C)O3)c3ccccc32)cc1
Activity (%): 47.9

Record smiles: C[C@@H]1O[C@@H](OCC#Cc2c(-c3ccccc3)oc3ccccc23)C[C@H](N)[C@H]1O
Activity (%): 50.5
